Test system: 889142-216-R-J1-PDC complex spheroid viability;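 note: spheroids exposed to compounds for seven days; 100% = DMSO vehicle control viability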
Experiment: Anticancer human tumor 889142-216-R-J1-PDC patient-derived bladder carcinoma cell line growth inhibition [POLQ]
Conditions: second compound 3.16 µM; first compound 0.1 µM; active compounds read low
Threshold check on viability, T/C: strictly below 90% is 1 (yes); on or above 90% is 0 (no).

CC1COCCN1c1cc(C2(S(C)(=N)=O)CC2)nc(-c2ccnc3[nH]ccc23)n1 (stereo unspecified) + Cc1cccc(N(C)C(=O)C2C(O)CCN2c2nc(C)cc(C(F)(F)F)c2C#N)c1 = 0 (no)
Nc1ccn(C2OC(CO)C(O)C2(F)F)c(=O)n1 (stereo unspecified) + Nc1ccc(C#CCN(C(=O)Cc2ncc(C(F)(F)F)cc2C(F)(F)F)c2ccc(F)cc2)nn1 = 1 (yes)
Nc1ccn(C2OC(CO)C(O)C2(F)F)c(=O)n1 (stereo unspecified) + Cc1cccc(N(C)C(=O)C2C(O)CCN2c2nc(C)cc(C(F)(F)F)c2C#N)c1 = 1 (yes)

Alright, here's another compound for you.
Qu. is_below(viability, T/C, 90%) for O=C(Nc1ccc(O)c(NS(=O)(=O)c2ccc(F)cc2)c1)c1ccc(-c2ccccc2)cc1 + Cc1cccc(N(C)C(=O)C2C(O)CCN2c2nc(C)cc(C(F)(F)F)c2C#N)c1 ?
Ans. 0 (no)
